# test_summary: NCI Yeast Anticancer Drug Screen. Data for the sgs1 mgt1 strain (AID 161);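 note: 0% = growth of cultures given vehicle only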
# condition_summary: S. cerevisiae sgs1 mgt1 strain, at 50.0 µM, hits give high values
About 79,000 compounds went through this panel and 15% of them were active in at least one assay; those are over-represented in the sample as a whole.
Binary classification by growth inhibition, with -10% as an inclusive lower bound for yes (1); all other cases are no (0).

Inquiry: Is the recorded value of growth inhibition equal to or greater than -10% for this compound? `CC1(C)CN=C(Nc2ccc(Cl)cc2)S1`
Reply text: no (0)

Inquiry: Is the recorded value of growth inhibition equal to or greater than -10% for this compound? CC1CN=C(Nc2ccc(F)cc2F)S1 (stereo not given)
Reply text: no (0)

Inquiry: Is the recorded value of growth inhibition equal to or greater than -10% for this compound? C1=CC2C=CC(C=C1)[PH+]2c1ccccc1.[C-]#[O+].[C-]#[O+].[C-]#[O+].[C-]#[O+].[C-]#[O+].[Cr] (stereo not given)
Reply text: yes (1)

Inquiry: Is the recorded value of growth inhibition equal to or greater than -10% for this compound? `CC(=O)[O][Hg][c]1cc[c]([Hg])s1`
Reply text: yes (1)

Inquiry: Is the recorded value of growth inhibition equal to or greater than -10% for this compound? `N.N.N.N.O=C([O-])C(Cl)Cl.O=C([O-])C(Cl)Cl.[Co+3].[O-][Cl+3]([O-])([O-])[O-]`
Reply text: no (0)

Cited source for all entries: PubChem BioAssay (NCI)
